Provide the recorded MIC for the entries that follow.
- Species on record: Mus musculus
- assay_explanation: Minimal inhibitory concentration required to cause a microscopic detectable alteration of C3H/3T3 embryo murine fibroblast cell morphology
- Format: functional

Reference set, count: 7
compound	data_value
CCCCc1ccc(CN2CCN(Cc3c(O)cc4c(c3O)-c3cc(ccc3O)C3NC(=O)C5NC(=O)C6NC(=O)C(Cc7ccc(c(Cl)c7)Oc7cc5cc(c7O)Oc5ccc(cc5Cl)C(O)C(NC3=O)C(=O)N[C@H]4C(=O)NC)NC(=O)C(N)c3ccc(O)c(c3)Oc3cc(O)cc6c3)CC2)cc1 (stereo partly drawn)	> 20 µM
COC(=O)[C@@H]1NC(=O)C2NC(=O)C(NC(=O)C(N)c3cc(Oc4ccc(CC(NC(=O)OCc5ccccc5)C(=O)O)cc4Cl)c(O)c(c3)Oc3ccc(cc3Cl)C2O)c2ccc(O)c(c2)-c2c1cc(O)c(CNC1C3CC4CC(C3)CC1C4)c2O (stereo partly drawn)	> 100 µM
COC(=O)[C@@H]1NC(=O)C2NC(=O)C(NC(=O)C(NC(=O)OC(C)(C)C)c3cc(Oc4ccc(CC(NC(=O)OCc5ccccc5)C(=O)O)cc4Cl)c(O)c(c3)Oc3ccc(cc3Cl)C2O)c2ccc(O)c(c2)-c2c(O)cc(O)cc21 (stereo partly drawn)	> 100 µM
CC(C)CC(C(=O)NC1C(=O)NC(CC(N)=O)C(=O)NC2C(=O)NC3C(=O)NC(C(=O)N[C@@H](C(=O)O)c4cc(O)c(CN5CCN(Cc6ccc(-c7ccccc7)cc6)CC5)c(O)c4-c4cc3ccc4O)C(O)c3ccc(cc3)Oc3cc2cc(c3O)Oc2ccc(cc2Cl)C1O)N(C)C(=O)OC(C)(C)C (stereo partly drawn)	> 100 µM
NC1Cc2ccc(c(Cl)c2)Oc2cc3cc(c2O)Oc2ccc(cc2Cl)C(O)C2NC(=O)C(NC(=O)C3NC(=O)C(c3cc(O)cc(Oc4cc(C5NC(=S)N(c6ccccc6)C5=O)ccc4O)c3)NC1=O)c1ccc(O)c(c1)-c1c(cc(O)c(CNC3C4CC5CC(C4)CC3C5)c1O)[C@H](C(=O)O)NC2=O (stereo partly drawn)	> 100 µM
NC1C(=O)NC2Cc3ccc(c(Cl)c3)Oc3cc4cc(c3O)Oc3ccc(cc3Cl)C(O)C(C(=O)O)NC(=O)C(c3ccc(O)c(-c5c(O)cc(O)cc5[C@@H](N)C(=O)O)c3)NC(=O)C4NC(=O)C(NC2=O)c2cc(O)cc(c2)Oc2cc1ccc2O (stereo partly drawn)	> 100 µM
NC1C(=O)NC2Cc3ccc(c(Cl)c3)Oc3cc4cc(c3O)Oc3ccc(cc3Cl)C(O)C3NC(=O)C(NC(=O)C4NC(=O)C(NC2=O)c2cc(O)cc(c2)Oc2cc1ccc2O)c1ccc(O)c(c1)-c1c(cc(O)c(CNC2C4CC5CC(C4)CC2C5)c1O)[C@H](C(=O)NC1C2CC4CC(C2)CC1C4)NC3=O (stereo partly drawn)	> 20 µM

Could you now consider this next compound?
Item under review: COC(=O)[C@@H]1NC(=O)C2NC(=O)C(NC(=O)C3NC(=O)C4NC(=O)C(NC(=O)C(N)c5ccc(O)c(c5)Oc5cc4cc(O)c5C)C(O)c4ccc(cc4)Oc4cc3cc(c4O)Oc3ccc(cc3)C2O)c2ccc(O)c(c2)-c2c(O)cc(O)cc21 (stereo partly drawn) . Reported MIC?
> 100 µM

* * *

- Species on record: Mus musculus
- assay_explanation: Minimal inhibitory concentration required to cause a microscopic detectable alteration of C3H/3T3 embryo murine fibroblast cell morphology
- Type: functional
Kindly state MIC for each of the entries shown.

// worked examples, MIC included
compound	MIC
NC(=O)CC1NC(=O)C(N)C(O)c2ccc(c(Cl)c2)Oc2cc3cc(c2O)Oc2ccc(cc2)C(O)C2NC(=O)C(NC(=O)C3NC1=O)c1ccc(O)c(c1)-c1c(cc(O)c(CNC3C4CC5CC(C4)CC3C5)c1O)[C@H](C(=O)O)NC2=O (some centres undefined)	> 100 µM
CCCCCCCCCCNC(=O)[C@H]1NC(=O)[C@H]2NC(=O)[C@H](NC(=O)[C@@H]3NC(=O)[C@H](CC(N)=O)NC(=O)[C@H](NC(=O)[C@@H](CC(C)C)NC)[C@H](O)c4ccc(c(Cl)c4)Oc4cc3cc(c4O[C@@H]3O[C@H](CO)[C@@H](O)[C@H](O)[C@H]3O[C@H]3C[C@](C)(N)C(O)[C@H](C)O3)Oc3ccc(cc3Cl)[C@H]2O)c2ccc(O)c(c2)-c2c(O)cc(O)cc21 (some centres undefined)	20 µM
CC(C)(C)OC(=O)NC1C(=O)NC2Cc3ccc(c(Cl)c3)Oc3cc4cc(c3O)Oc3ccc(cc3Cl)C(O)C3NC(=O)C(NC(=O)C4NC(=O)C(NC2=O)c2cc(O)cc(c2)Oc2cc1ccc2O)c1ccc(O)c(c1)-c1c(O)cc(O)cc1[C@H](C(=O)O)NC3=O (some centres undefined)	> 100 µM

Would you kindly look at the next entry?
Quick one: MIC of CNC(=O)[C@@H]1NC(=O)C2NC(=O)C(NC(=O)C3NC(=O)C(CC(N)=O)NC(=O)C(NC(=O)C(CC(C)C)NC)C(O)c4ccc(c(Cl)c4)Oc4cc3cc(c4O)Oc3ccc(cc3)C2O)c2ccc(O)c(c2)-c2c1cc(O)c(CN1CCN(Cc3ccc(-c4ccccc4)cc3)CC1)c2O (some centres undefined) ?
> 100 µM

* * *

For each of the compounds below, state its MIC.
- Species: Mus musculus
- assay_explanation: Minimal inhibitory concentration required to cause a microscopic detectable alteration of C3H/3T3 embryo murine fibroblast cell morphology
- Assay type: functional

Past entries and their recorded results:
compound	MIC
O=C(NC1C(=O)NC2Cc3ccc(c(Cl)c3)Oc3cc4cc(c3O)Oc3ccc(cc3Cl)C(O)C3NC(=O)C(NC(=O)C4NC(=O)C(NC2=O)c2cc(O)cc(c2)Oc2cc1ccc2O)c1ccc(O)c(c1)-c1c(O)cc(O)cc1[C@H](C(=O)O)NC3=O)OC12CC3CC(CC(C3)C1)C2 (some centres undefined)	> 20 µM
CNC1C(=O)NC2Cc3ccc(cc3)Oc3cc4cc(c3OC3OC(C(=O)O)C(O)C(O)C3N)Oc3ccc(cc3Cl)C(O)C3NC(=O)C(NC(=O)C4NC(=O)C(NC2=O)c2cc(cc(O)c2Cl)Oc2cc1ccc2O)c1ccc(O)c(c1)-c1c(O)cc(O)cc1[C@H](C(=O)O)NC3=O (some centres undefined)	> 100 µM
CN(Cc1ccc(Cl)cc1)Cc1c(O)cc2c(c1O)-c1cc(ccc1O)C1NC(=O)C3NC(=O)C4NC(=O)C(Cc5ccc(c(Cl)c5)Oc5cc3cc(c5O)Oc3ccc(cc3Cl)C(O)C(NC1=O)C(=O)N[C@H]2C(=O)O)NC(=O)C(N)c1ccc(O)c(c1)Oc1cc(O)cc4c1 (some centres undefined)	> 100 µM

Now, please, on to the next compound.
What MIC value was documented for this compound, CNC(CC(C)C)C(=O)NC1C(=O)NC(CC(N)=O)C(=O)NC2C(=O)NC3C(=O)NC(C(=O)N[C@@H](C(=O)O)c4cc(O)c(CN5CCN(Cc6ccc(-c7ccccc7)cc6)CC5)c(O)c4-c4cc3ccc4O)C(O)c3ccc(cc3)Oc3cc2cc(c3O)Oc2ccc(cc2Cl)C1O (some centres undefined) ?
> 100 µM

* * *

- System: Human immunodeficiency virus 1
- assay_explanation: Effective concentration of compound required to protect human T-lymphocytic cells against the cytopathogenicity of HIV-1
- Type: functional, organism-based
- test_settings: Human immunodeficiency virus 1
measured_endpoint: EC50

chemical_smiles	target_desc	measured_endpoint	data_value
COC(=O)[C@H]1NC(=O)C2NC(=O)C(NC(=O)[C@@H]3NC(=O)[C@H]4NC(=O)[C@H](NC(=O)[C@H](N)c5ccc(O)c(c5)Oc5cc4cc(O)c5C)[C@H](O)c4ccc(cc4)Oc4cc3cc(c4O)Oc3ccc(cc3)[C@H]2O[C@@H]2C[C@@H](N)[C@@H](O)[C@@H](C)O2)c2ccc(O)c(c2)-c2c(O)cc(O)cc21	Human immunodeficiency virus 1	EC50	> 50 µM
CCCCCCCCCCNC(=O)[C@H]1NC(=O)[C@H]2NC(=O)[C@H](NC(=O)[C@@H]3NC(=O)[C@H](CC(N)=O)NC(=O)[C@H](NC(=O)[C@@H](CC(C)C)NC)[C@H](O)c4ccc(c(Cl)c4)Oc4cc3cc(c4O[C@@H]3O[C@H](CO)[C@@H](O)[C@H](O)[C@H]3O[C@H]3C[C@](C)(N)[C@@H](O)[C@H](C)O3)Oc3ccc(cc3)[C@H]2O[C@H]2C[C@](C)(N)[C@@H](O)[C@H](C)O2)c2ccc(O)c(c2)-c2c(O)cc(O)cc21	Human immunodeficiency virus 1	EC50	> 10 µM

Query molecule follows.
Recorded EC50 for CNC(=O)[C@H]1NC(=O)[C@H]2NC(=O)[C@H](NC(=O)[C@@H]3NC(=O)[C@H](CC(N)=O)NC(=O)[C@H](NC(=O)[C@@H](CC(C)C)NC)[C@H](O)c4ccc(c(Cl)c4)Oc4cc3cc(c4O[C@@H]3O[C@H](CO)[C@@H](O)[C@H](O)[C@H]3O[C@H]3C[C@](C)(N)[C@@H](O)[C@H](C)O3)Oc3ccc(cc3)[C@H]2O[C@H]2C[C@](C)(N)[C@@H](O)[C@H](C)O2)c2ccc(O)c(c2)-c2c(O)cc(O)cc21 with Human immunodeficiency virus 1, please?
> 250 µM

These entries and their values trace back to ChEMBL document CHEMBL1145814.
